- Tested on: THP-1 cells
- Assay Explanation: chemotaxis of THP-1 cells (modified Boyden chambers)
- Type: cell-based, human
- Condition Summary: THP-1 cells, FIG. 9B; read-out: concentration inhibiting D2D388-279 chemotaxis by 50% (de-sensitization)
- Procedure: Chemotaxis assays were performed as described (Degryse, 1999) with modified Boyden chambers using filters (5 μm pore size, Corning) treated with collagen I (100 μg/ml) and fibronectin (10 μg/ml, Boehringer Mannheim). […] The experiments were performed in triplicate and the results presented represent the mean ±SD of the number of cells counted in ten high power fields per filter and are representative of at least three experiments. […]
pIC50: −log10 of the molar value.
Assay Endpoint: pIC50

Ask: Under THP-1 cells, report pIC50 for CSCC[C@H](NC=O)C(=O)N[C@@H](CC(C)C)C(=O)N[C@@H](Cc1ccccc1)C(=O)O
Reply: 4.70 to 5.00
